- System: SN12C
- PROCEDURE_DETAILS: NCI tumour cell line growth inhibition, 48 h
The source made the active and inactive calls. No stated cut-off is given here; in the data, active = GI50 up to about 1.1 µM and inactive = higher.
METRIC_NAME: GI50

Form field GI50, entry CC(=O)N1C(OCc2ccccc2)CCN1c1ccccc1 (stereo not drawn) : > 10 µM (inactive)

Sample N#CC(c1ccccc1)N(CCc1ccccc1)C(=O)Oc1ccccc1 (stereo not drawn) ; GI50 observed: > 100 µM (inactive)

----------
- Test system: OVCAR-5
- PROCEDURE_DETAILS: NCI tumour cell line growth inhibition, 48 h
Active and inactive are the calls of the source. Cut-off read from the data, not from the text of the source: active = GI50 up to about 1.1 µM and inactive = higher.
// classify into active, inactive

// below: answered molecules
MOLECULE	DISCRETE_LABEL
COC(=O)Cc1cc(O)c2c(c1O)C(=O)c1ccccc1C2=O	inactive
CCN(CC)CCNc1ccc2nnn3c4ccccc4c(=O)c1c23	inactive
O=C(CC1=Nc2nnc(CCCCCCCc3nnc4n3C(=O)C(CC(=O)c3ccccc3)=N4)n2C1=O)c1ccccc1	inactive

// outcome(item) with item = COc1nc2sc3c(c2c(=O)n1CCCSSCCCn1c(OC)nc2sc4c(c2c1=O)CCCC4)CCCC3
inactive

Recorded test call requested for COc1c(C)c(OC)c2c(c1O)[C@@H]1[C@@H]3Cc4c(OC)c(C)c(OC)c(O)c4[C@H](CNC(=O)c4cnc5ccccc5n4)N3[C@@H](C#N)[C@H](C2)N1C
active

Would you mind telling me which call this test gave N/C(=N\O)N/N=C\c1ccc(O)c(O)c1O ?
inactive

What outcome does the record of this test show for C[C@H]1CC[C@H]([C@@H](C)[C@H]2[C@@H](O)C[C@H]3[C@@H]4CC[C@H]5C[C@@H](O)CC[C@]5(C)[C@H]4CC[C@]23C)NC1 ?
inactive

So what was the verdict on O=CC12C3CCC1C2C(=O)C3 (configuration not stated) in this test?
inactive

Record request — test call for Cc1ccc(/N=N/c2c(C)c(C#N)c(=S)n(C3OC(CO)C(O)C(O)C3O)c2-c2ccccc2)cc1 (configuration not stated)
inactive

----------
Listed here: items and their measured GI50.
- Test system: SNB-78
- PROCEDURE_DETAILS: NCI tumour cell line growth inhibition, 48 h
The source made the active and inactive calls. Cut-off read from the data, not from the text of the source: active = GI50 up to about 1.1 µM and inactive = higher.

Worked examples follow.
COMPOUND	MEASURED
C/C(=C\CNc1ncnc2c1ncn2C1CCCCO1)COP(=O)(O)O (centres undefined)	> 100 µM (inactive)
CNC(=O)NCCCC(NC(C)=O)C(=O)NCc1ccccc1 (centres undefined)	> 100 µM (inactive)
O=c1c(-c2ccccc2)c(O)nc2[nH]c3ccccc3n12	> 100 µM (inactive)
O=c1cc(-c2ccccc2)oc2cc(OCCSCCCCCCCCCCSCCOc3ccc4c(=O)cc(-c5ccccc5)oc4c3)ccc12	68.2 µM (inactive)
CCOC(=O)c1nc(C)oc1C(F)(F)F	> 100 µM (inactive)

// sample COc1ccc2c(c1)N1CCc3cc(OC)c(OC)cc3C1C2 (centres undefined) , its GI50 was > 100 µM (inactive)

// CC(C)/C=C1\CCC(CN(C)C)C1=O (centres undefined) : GI50 value = 4.51 µM (inactive)

Summary for this compound, O=C1[C@@H]2C(c3ccccc3F)=NO[C@@H]2C(=O)N1c1ccc(Cc2ccc(N3C(=O)[C@H]4C(c5ccccc5F)=NO[C@H]4C3=O)cc2)cc1 : GI50 is > 100 µM (inactive)

Entry COc1ccc(/C=c2/sc3n(c2=O)NC(c2ccc(Cl)cc2)NN=3)cc1 (centres undefined) , GI50 reported as > 100 µM (inactive)
